B1: Pistol ribozyme (parent)
chain: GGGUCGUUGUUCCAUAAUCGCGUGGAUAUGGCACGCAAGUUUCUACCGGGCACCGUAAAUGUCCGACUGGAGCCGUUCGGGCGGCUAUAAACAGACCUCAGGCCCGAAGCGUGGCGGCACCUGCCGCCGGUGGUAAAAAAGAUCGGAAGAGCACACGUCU

# Variants of: B1
# run description: aptazyme ON/OFF ratio, guanine; higher = stronger switching; co-transcriptional cleavage with and without guanine

| mutation descriptor | aptazyme ON/OFF ratio |
| --- | --- |
| U7G U8C U10C U11C C12A C13G | 1.33 |
| U7G U8G G9C U10G C12G C13G | 1.12 |
| U7A U8G G9U U10C U11A C12U C13A | 1.41 |
| U7A U10C U11C | 1.03 |
| U7A U8A U10C U11G C12G C13G | 1.18 |
| U7G G9A U10G C12G C13U | 1.07 |
| U8G G9A U10G U11A C12A C13G | 1.27 |
| U7A U8C G9C U10G U11A C12U C13A | 1.07 |
| U7G U8G G9C U10G C12G C13A | 1.11 |
| U7G U8G G9U U10A C12G C13G | 1.09 |
| U7C U8A U10C U11A C12G C13A | 1.14 |
| G9U U10C U11C C12A | 1.08 |
| U7A U8C G9A U11C | 1.04 |
| G9U U10A U11A C12A | 1.54 |
| G9A U10C C12U | 1.5 |
| U7G U8C G9U U11C C12U C13G | 1.05 |
| U7C G9C U10A U11C | 1.04 |
| U7G U8A G9C U10A C12A C13U | 1.06 |
| U7C U8C G9U U10A U11C C12G | 1.36 |
| U7A U8C G9U U10C U11A C12A C13U | 1.12 |
| U7A U8A G9A U10A | 1.46 |
| U8A G9U U11C C13G | 1.02 |
| U8A G9C U10G U11A | 1.03 |
| U7G G9A U10A U11A C13G | 1.09 |
| U7G G9U U10C C12U C13A | 1.38 |
| U8A U10A C12U | 1.11 |
| U7A U8A G9C U10C C12U C13G | 1.1 |
| U7A U8C G9U U10C C12A | 1.27 |
| U7G U8A U10C U11C C12U C13G | 1.25 |
| U7G G9A U10A U11A | 2.42 |
| U8G G9A U10C U11C C12A C13U | 1.07 |
| U8G G9C U10C U11A C12A | 1.05 |
| U7C U8C G9U U10A U11A C13A | 1.13 |
| U7A U8C G9C U10C U11G C12A C13A | 1.18 |
| U7C U8C G9A U10C C12U C13A | 1.22 |
| U8G G9U U10C U11A | 1.27 |
| U7C U8A G9U U10G | 1.26 |
| U7G U10G U11G C12G | 1.15 |
| U7G U8A U10A U11C C12U C13A | 1.18 |
| U7G G9U U10A U11C C12G C13A | 1.22 |
| U7A U8G G9C U11C C12A C13U | 1.66 |
| U8G G9C U10A U11C C12U C13A | 1.09 |
| U7C U8A G9C C12U | 1.05 |
| U7C U8A U10G C12U | 1.34 |
| U7G U8A G9U U10A U11G C12G C13A | 1.13 |
| U7G U8C G9U U10G U11C C12G C13A | 1.26 |
| U8A G9A U10G U11C C13U | 1.04 |
| U7A G9U U10G C13A | 1.33 |
| U7G U8A U10C C12A C13A | 1.39 |
| U7C U8A G9C U10G C12U C13U | 1.26 |
| U7A U8C U10A U11C C13U | 1.02 |
| U7C G9A U10G C12U C13U | 1.11 |
| U8G G9A U10G C13U | 1.58 |
| U7A U8A G9C U10G U11G C12G C13U | 1.21 |
| U7C U8A G9U U10C U11G C12A C13G | 1.09 |
| U7G U10G U11C C12U C13G | 1.3 |
| U7A U8C G9C U10G U11C C12G | 1.21 |
| U8G G9U U11G C12U C13G | 1.1 |
| U7A U8C G9U U11C C13A | 1.04 |
| U7G U8A G9A U10A U11C C12U C13A | 1.07 |
| U7A G9U U10C U11C C12A C13U | 1.07 |
| U7G U8A G9A U10A C12G C13U | 1.1 |
| U8G G9A U10C U11G C12G C13U | 1.14 |
| G9C U11C C12A C13G | 1.09 |
| U8G U10A U11C C12G C13G | 1.33 |
| U7G U8A U10G C12G C13U | 1.27 |
| U7G U8C U10C C12G C13A | 1.2 |
| U7C G9C U10G U11C C13U | 1.06 |
| U7A U8C G9C U10C U11A | 1.03 |
| U7C U8G G9U U11C C13A | 1.12 |
| U7G U8A G9A U10C U11C C12U C13G | 1.02 |
| U7A U8G U10A U11C C12U C13U | 1.33 |
| U8A G9A U10G U11A C13A | 1.03 |
| U8C G9U C13A | 1.08 |
| U7G U8G G9C U10G U11A C12G C13G | 1.12 |
| U7C U8C G9C U10G U11G C12A | 1.11 |
| G9C U10A U11G C12U C13G | 1.16 |
| U8C U10C U11G C12A | 1.15 |
| U7G U10C C12A | 1.12 |
| U7G U8G G9A U11G C12U C13A | 1.23 |
